Can you tell me Ki for the items I'm about to list?
# target-of-assay: 5-hydroxytryptamine receptor 2C (Homo sapiens, UniProt P28335)
# Sequence (P28335 whole entry): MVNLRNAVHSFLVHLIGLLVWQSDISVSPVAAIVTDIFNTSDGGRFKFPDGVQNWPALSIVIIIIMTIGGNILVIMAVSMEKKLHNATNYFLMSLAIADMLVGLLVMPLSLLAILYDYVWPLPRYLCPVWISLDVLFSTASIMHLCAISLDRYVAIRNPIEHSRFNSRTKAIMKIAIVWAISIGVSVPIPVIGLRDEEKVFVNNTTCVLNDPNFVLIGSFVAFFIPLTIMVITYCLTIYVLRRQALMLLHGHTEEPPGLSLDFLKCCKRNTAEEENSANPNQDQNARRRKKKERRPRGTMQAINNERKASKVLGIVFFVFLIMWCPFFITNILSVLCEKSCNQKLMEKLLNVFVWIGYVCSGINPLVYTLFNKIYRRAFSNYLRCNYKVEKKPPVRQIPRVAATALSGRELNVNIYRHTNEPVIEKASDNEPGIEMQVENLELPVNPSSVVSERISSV

Recorded results for 5 molecules are shown here.
- smiles: "CCNC(=O)NCc1cc2c(ccc3ccc(OC)cc32)o1"
  target-of-assay: "5-hydroxytryptamine receptor 2C (Homo sapiens, UniProt P28335)"
  Ki: "> 10 µM"
- smiles: "COc1ccc2ccc3oc(CNC(=O)C4CC4)cc3c2c1"
  target-of-assay: "5-hydroxytryptamine receptor 2C (Homo sapiens, UniProt P28335)"
  Ki: "> 10 µM"
- smiles: "COc1ccc2ccc3oc(CCNC(=O)C4CC4)cc3c2c1"
  target-of-assay: "5-hydroxytryptamine receptor 2C (Homo sapiens, UniProt P28335)"
  Ki: "> 10 µM"
- smiles: "CCNC(=O)NCCc1cc2c(ccc3ccc(OC)cc32)o1"
  target-of-assay: "5-hydroxytryptamine receptor 2C (Homo sapiens, UniProt P28335)"
  Ki: "> 10 µM"
- smiles: "CNC(=O)NCc1cc2c(ccc3ccc(OC)cc32)o1"
  target-of-assay: "5-hydroxytryptamine receptor 2C (Homo sapiens, UniProt P28335)"
  Ki: "> 10 µM"

Now for another entry.
Request - read-out Ki | tested on 5-hydroxytryptamine receptor 2C (Homo sapiens, UniProt P28335) | molecule "CCNC(=S)NCc1cc2c(ccc3ccc(OC)cc32)o1" 0.73 µM
